Test target: UniProt:P42345
Protocol description: Lanthascreen kinase binding assay, assay G
Assay conditions: read-out: Assay G mTOR IC50
pIC50: −log10 of the molar value.
Property measured: pIC50

Reference set (5 entries):
[[record]]
compound = "Cc1cc(-c2nc(-c3cc(S(=O)(=O)NCC4(O)COC4)ccc3C)cnc2N)ccn1 [Example 129.32]"
test_result = "< 5.04"

[[record]]
compound = "Cc1cc(-c2nc(-c3cc(S(=O)(=O)NCCC(C)(C)O)ccc3C)cnc2N)on1 [Example 89]"
test_result = "< 5.00"

[[record]]
compound = "CCN1CCC[C@@H]1CNS(=O)(=O)c1ccc(C)c(-c2cnc(N)c(-c3ccnc(C)c3)n2)c1 [Example 129.25]"
test_result = "< 5.04"

[[record]]
compound = "Cc1cn(-c2nc(-c3cc(S(=O)(=O)NCCCO)ccc3C)cnc2N)cn1 [Example 57]"
test_result = "< 5.04"

[[record]]
compound = "Cc1ccc(S(=O)(=O)NCC2(O)CCCCC2)cc1-c1cnc(N)c(-n2cncn2)n1 [Example 127.11]"
test_result = "< 5.00"


Data request: Returns the measured pIC50 for the input compound. Input: Cc1cc(-c2nc(-c3cc(S(=O)(=O)N4CCC(N)CC4)ccc3C)cnc2N)ccn1 [Example 129.41]
Data returned: < 5.04
